assay: chemical genetic growth profiling, strain panel (AID 1159580);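 also: tested at 20 µM; growth read once vehicle control cultures reached saturation at 30 °C; 1 = growth at the plate median or of vehicle wells; lower values mean less growth of the strain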; details: S. cerevisiae deletion strains, growth OD, locus YLR262C, strain YPT6 (second series), hits give low values
Out of some 5,500 compounds screened, about 2,000 (36%) were called active. Inconclusive results (about 18%) are left out. Some of the results follow.
Entries and their measured normalized growth follow.
Simply state the number, no unit and no words.

[[record]]
compound = "N[C@H](CO)Cc1ccccc1"
measurement_name = "normalized growth"
measured_result = 1.02


Prompt: What does the record list as normalized growth for `C/C(=C\C(=O)OCCCCCCCCC(=O)O)C[C@@H]1OC[C@H](C[C@@H]2O[C@H]2[C@@H](C)[C@H](C)O)[C@@H](O)[C@H]1O` ?
Completion: 0.962

Prompt: What does the record list as normalized growth for `CCCN1C[C@H](CSC)C[C@@H]2c3cccc4[nH]cc(c34)C[C@H]21` ?
Completion: 1.07

Prompt: What does the record list as normalized growth for `CN(C)CC/C=C1/c2ccccc2COc2ccccc21` ?
Completion: 1.09

Prompt: What does the record list as normalized growth for [N-]=[N+]=CC(=O)OCC(N)C(=O)O (centres undefined) ?
Completion: 1.02

Prompt: What does the record list as normalized growth for `O=C(O)c1cc(=O)c2ccccc2o1` ?
Completion: 0.986

Prompt: What does the record list as normalized growth for CC(=O)[C@H]1CCC2C3CC=C4C[C@@H](OC(=O)CCC(=O)O)CC[C@]4(C)C3CC[C@@]21C (some centres undefined) ?
Completion: 0.57

Prompt: What does the record list as normalized growth for `COc1ccc(-c2cc(=O)c3c(OC)c(OC)c(OC)c(OC)c3o2)cc1` ?
Completion: 0.692

Prompt: What does the record list as normalized growth for CN1CCOC(c2ccccc2)c2ccccc2C1 (centres undefined) ?
Completion: 0.955

Prompt: What does the record list as normalized growth for `COc1c2c(cc3c1OCO3)CC[N+](C)=C2` ?
Completion: 0.995

Prompt: What does the record list as normalized growth for CC(=O)O[C@H]1C[C@@H](O)C(C)(C)C2C[C@@H](OC(C)=O)[C@]3(C)C(CC[C@@]4(C)[C@H](c5ccoc5)OC(=O)C5OC543)[C@]21C (some centres undefined) ?
Completion: 1.01

Prompt: What does the record list as normalized growth for CC1(C)O[C@@H]2CC3C4C[C@H](F)C5=CC(=O)C=CC5(C)C4C(O)CC3(C)[C@]2(C(=O)CO)O1 (some centres undefined) ?
Completion: 0.969

Prompt: What does the record list as normalized growth for `O=c1c2ccccc2oc2ccccc12` ?
Completion: 0.769

Prompt: What does the record list as normalized growth for CC(=O)O[C@@H]1CC2C(C)(C)[C@H](O)C[C@H](O)[C@]2(C)C2CC[C@@]3(C)[C@H](c4ccoc4)OC(=O)[C@H]4O[C@]43[C@@]21C (some centres undefined) ?
Completion: 1

Prompt: What does the record list as normalized growth for CC(=O)[C@H]1CCC2C3CC=C4C[C@@H](O)CC[C@]4(C)C3CC[C@@]21C (some centres undefined) ?
Completion: 0.456

Prompt: What does the record list as normalized growth for CC(=O)O[C@@H]1CC2C(C)(C)C(=O)CC[C@]2(C)C2CC[C@@]3(C)[C@H](c4ccoc4)OC(=O)C4OC43[C@@]21C (some centres undefined) ?
Completion: 0.97

Prompt: What does the record list as normalized growth for `CCn1cc(C(=O)O)c(=O)c2cc(F)c(N3CCNCC3)cc21` ?
Completion: 0.97

Prompt: What does the record list as normalized growth for COc1cc([C@@H]2c3cc4c(cc3C(O[C@@H]3O[C@@H]5CO[C@@H](c6cccs6)OC5[C@H](O)[C@H]3O)C3COC(=O)[C@@H]32)OCO4)cc(OC)c1O (some centres undefined) ?
Completion: 1

Prompt: What does the record list as normalized growth for `O=c1c(-c2ccc(O)cc2)coc2cc(O)cc(O)c12` ?
Completion: 1.01
